Entry source: paper PMC7826789

test system: CDK9; conditions: Compound Concentration (nM):1000;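 further: KINOMEscan scanMAX binding as percent activity remaining versus control; lower means stronger binding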
readout-type: Percent Control (%)
Numbers only, in %.

Field: example entries. Status: answers known.
>>> reading("CN(C)c1cc2c(Nc3ccc4c(cnn4Cc4ccccc4)c3)ncnc2cn1 [GW282974X]")
100
>>> reading("Cl.O=C(Nc1ccc(Oc2ccc3[nH]c(NC(=O)c4ccccc4)nc3c2)cc1)Nc1cc(C(F)(F)F)ccc1F [GW709042A]")
81
>>> reading("CCc1ccc(Oc2nccc(-c3c(-c4ccc(F)cc4)ncn3C3CCNCC3)n2)cc1")
100

Below is a list of compounds. For each, state its recorded Percent Control.
1. CC1=C(C(=O)Nc2ccc3[nH]ncc3c2)C(c2ccc3ccccc3c2)CC(=O)N1 (centres unmarked) [GSK270822A]
2. CCS(=O)(=O)c1ccc(OC)c(Nc2ncc(-c3cccc(F)c3)o2)c1 [GW621970X]
3. NS(=O)(=O)c1ccc(N/N=C2\C(=O)Nc3ccc(-c4cnco4)cc32)cc1
4. C/C(Nc1ccc(S(N)(=O)=O)cc1)=C1/C(=O)Nc2ccccc21 [GW335962X]
5. COc1cccc(-n2ncc3c(N/N=C/c4ccncc4)ncnc32)c1 [GW784752X]

1: 100; 2: 100; 3: 93; 4: 100; 5: 100

----------
Assignment: determine reported Percent Control for the given compounds.
tested on: ABL1(F317L)-nonphosphorylated; details: Compound Concentration (nM):1000
Give bare numbers, in %.

Example entries and their recorded answers appear below.
>>> reading("CN1CCN(C(=O)c2ccc(NC(=O)Nc3ccc(N(C)c4ccnc(Nc5ccc(CS(C)(=O)=O)cc5)n4)cc3)cc2)CC1.Cl [GW830263A]")
51
>>> reading("NS(=O)(=O)c1ccc(Nc2ncc(-c3ccccc3)o2)cc1 [GW572399X]")
86
>>> reading("CCn1c(-c2nonc2N)nc2c(C#CC(C)(C)O)nc(OCCNC)cc21.Cl [GSK949675]")
100
>>> reading("COc1cc(C)c(N(C)C(=O)CN(C)C)cc1Nc1nc(Nc2cccc(F)c2C(N)=O)c2cc[nH]c2n1 [GSK2219385]")
100

Each compound below has a recorded value; state its Percent Control.
1. Cl.c1ccc(Cc2nc3ccc(Nc4ncnc5ccccc45)cc3[nH]2)cc1 [GR269666A]
2. COc1ccc2[nH]c3c4[nH]c5ccc(OC)cc5c4c4c(c3c2c1)C(=O)NC4=O [GW296115X]
3. CCS(=O)(=O)c1ccc(OC)c(Nc2ncc(-c3cccc(F)c3)o2)c1 [GW621970X]
4. C[C@@H](Oc1cc(-n2cnc3ccc(OC4CCN(C)CC4)cc32)sc1C(N)=O)c1ccccc1Cl [GSK579289A]

100
84
47
100

----------
system: NDR1; construct: gene STK38; conditions: Compound Concentration (nM):1000
What Percent Control was measured for each of the following?
Give bare numbers, in %.

Examples with answers:
>>> reading("CN(C)CCNC(=O)Nc1ccc(N(C)c2ccnc(Nc3ccc(CS(C)(=O)=O)cc3)n2)cc1.Cl [GW830900A]")
86
>>> reading("NS(=O)(=O)c1ccc(N/N=C2\\C(=O)Nc3ccc(C(=O)NCCc4c[nH]cn4)cc32)cc1 [GW300660X]")
77
>>> reading("Cc1cc(O)cc(C)c1/C=C/c1cncc(C(N)=O)c1 [GW435821X]")
99

Dear reader, for each entry below, please note its Percent Control.
1. COc1cc(C)c(N(C)C(=O)CN(C)C)cc1Nc1nc(Nc2cccc(F)c2C(N)=O)c2cc[nH]c2n1 [GSK2219385]
2. Cl.c1ccc(Cc2nc3ccc(Nc4ncnc5ccccc45)cc3[nH]2)cc1 [GR269666A]
3. Cl.O=C(Nc1ccc(Oc2ccc3[nH]c(NC(=O)c4ccco4)nc3c2)cc1)Nc1cc(C(F)(F)F)ccc1F [GW683134A]
4. COc1cc(C=NNc2ncnc3c2cnn3-c2ccccc2)ccc1O [GW513184X]

100
100
100
100

Provide one value: measured Percent Control of O=C1Nc2ccc(C(=O)c3ccco3)cc2C1=Cc1cc(Cl)c(O)c(Cl)c1 [GW406108X]
95

----------
tested on: TESK1; conditions: Compound Concentration (nM):1000
readout-type: Percent Control (%)
One number for each entry, in %.

>>> reading("CN(C)c1cc2c(Nc3ccc4c(cnn4Cc4ccccc4)c3)ncnc2cn1 [GW282974X]")
87
>>> reading("COc1cc(C=NNc2ncnc3c2cnn3-c2ccccc2)ccc1O [GW513184X]")
100
>>> reading("COc1cc(/C=N/Nc2ncnc3[nH]ncc23)ccc1O [GW578748X]")
94
>>> reading("CCS(=O)(=O)c1ccc(OC)c(Nc2ncc(-c3cccc(OC)c3)o2)c1 [GW580509X]")
100
>>> reading("Nc1ncnc2occ(-c3ccc(NC(=O)Nc4cc(C(F)(F)F)ccc4F)cc3)c12 [GW770249X]")
100

Each of the following entries comes with a recorded value; kindly state Percent Control for each.
1. COc1ccc2cc(-c3c(-c4ccncc4)nc(-c4ccc(S(C)(=O)=O)cc4C)n3C)ccc2c1
2. COc1cccc(-c2c[nH]c3c(N/N=C/c4ccncc4)ncnc23)c1 [GW814408X]
3. CC(C)COC(=O)c1ccc2c(c1)/C(=C/Nc1ccc(S(N)(=O)=O)cc1)C(=O)N2 [GW416981X]
4. COC(=O)Nc1nc2ccc(Oc3ccc(NC(=O)Nc4cc(C(F)(F)F)ccc4F)cc3)cc2s1.Cl [GW693917A]

91
97
100
77

----------
tested on: CLK4; settings: Compound Concentration (nM):1000
readout-type: Percent Control (%)
Numbers only, in %.

Below: 2 compounds and their reported Percent Control.
>>> reading("CCS(=O)(=O)c1ccc(OC)c(Nc2ncc(-c3cccc(F)c3)o2)c1 [GW621970X]")
23
>>> reading("COc1cc2ncn(-c3cc(O[C@H](C)c4ccccc4Cl)c(C(N)=O)s3)c2cc1OC [GSK237701A]")
68

Below: the item to evaluate.
Write Percent Control of CC1=C(C(=O)Nc2ccc3[nH]ncc3c2)C(c2ccc(Cl)c(Cl)c2)CC(=O)N1 (stereo not drawn) [GSK299115A] ; system used: CLK4
52

----------
tested on: TAOK2; settings: Compound Concentration (nM):1000
readout-type: Percent Control
Express the reported value numerically, then name its unit.

Check out these entries, answers already filled in.
>>> reading("Cl.O=C(O[C@H]1CN[C@H](C#Cc2cc3ncnc(Nc4ccc5c(cnn5Cc5ccccc5)c4)c3s2)C1)N1CCOCC1 [GSK200398A]")
"97%"
>>> reading("CCc1ccc(Oc2nccc(-c3c(-c4ccc(F)cc4)ncn3C3CCNCC3)n2)cc1")
"93%"
>>> reading("CN1CCN(C(=O)c2ccc(NC(=O)Nc3ccc(N(C)c4ccnc(Nc5ccc(CS(C)(=O)=O)cc5)n4)cc3)cc2)CC1.Cl [GW830263A]")
"76%"

Next up:
Please give measured Percent Control of the following entry: COc1cccc(-c2c[nH]c3c(N/N=C/c4ccncc4)ncnc23)c1 [GW814408X]
51%

----------
system: CSNK1E; details: Compound Concentration (nM):1000
readout-type: Percent Control (%)
Answers are plain numbers, in %.

Here's what some known entries look like.
>>> reading("NS(=O)(=O)c1ccc(Nc2ncc(-c3ccccc3)o2)cc1 [GW572399X]")
83
>>> reading("Cc1cc(O)cc(C)c1/C=C/c1cncc(C(N)=O)c1 [GW435821X]")
86
>>> reading("CCS(=O)(=O)c1ccc(OC)c(Nc2ncc(-c3cccc(F)c3)o2)c1 [GW621970X]")
100
>>> reading("CC(C)COC(=O)c1ccc2c(c1)/C(=C/Nc1ccc(S(N)(=O)=O)cc1)C(=O)N2 [GW416981X]")
100
>>> reading("CN1CCN(C(=O)c2ccc(NC(=O)Nc3ccc(N(C)c4ccnc(Nc5ccc(CS(C)(=O)=O)cc5)n4)cc3)cc2)CC1.Cl [GW830263A]")
75

Please go through the list and note Percent Control for each molecule.
1. COc1ccc2cc(-c3c(-c4ccncc4)nc(-c4ccc(S(C)(=O)=O)cc4C)n3C)ccc2c1
2. CC1=C(C(=O)Nc2ccc3[nH]ncc3c2)C(c2ccc(Cl)c(Cl)c2)CC(=O)N1 (centres unmarked) [GSK299115A]
3. Cl.O=C(Nc1ccc(Oc2ccc3[nH]c(NC(=O)c4ccccc4)nc3c2)cc1)Nc1cc(C(F)(F)F)ccc1F [GW709042A]
4. COc1cc(C=NNc2ncnc3c2cnn3-c2ccccc2)ccc1O [GW513184X]
5. NS(=O)(=O)c1ccc(N/N=C2\C(=O)Nc3ccc(Cl)cc32)cc1 [GW280670X]
6. COC(=O)Nc1nc2ccc(Oc3ccc(NC(=O)Nc4cc(C(F)(F)F)ccc4F)cc3)cc2s1.Cl [GW693917A]

69
100
83
51
93
98

Batch of 2 molecules: report Percent Control for each.
1. COc1ccc2c(-c3ccnc(Nc4cccc(OC(F)(F)F)c4)n3)cnn2n1 [GW810372X]
2. C[C@@H](Oc1cc(-n2cnc3ccc(OC4CCN(C)CC4)cc32)sc1C(N)=O)c1ccccc1Cl [GSK579289A]

1. 100
2. 100
